Property Label: melting point

Examples with their reported melting point follow.
Compound	Property Label	Readout Value
Cn1c(-c2ccccn2)cc2onc(-c3ccccc3)c2c1=O	melting point	160 to 162 °C
Cn1cc(-c2cccc(N3CCc4c(sc5c4CCCC5)C3=O)c2CO)cc(Nc2ccc(C3CNC3)cn2)c1=O	melting point	140 to 142 °C
CCOC(=O)c1cnc2c(c1O)CCCCCCCC2	melting point	212 to 230 °C
CN1[C@@H](c2cccc(Br)c2)c2ccccc2S1(=O)=O	melting point	157 °C
CCCCOc1ccc(S(=O)(=O)C2(C(=O)NO)CCN(Cc3ccccc3)CC2)cc1	melting point	144 °C
CCOC(=O)C1(C(=O)OCC)Cc2ccc(OC)c(Cl)c2O1	melting point	97 to 99 °C
CCCCCC(C)C(C)c1cc(O)c2c3c(c(=O)oc2c1)CSC3 (stereo not drawn)	melting point	165 to 166 °C

Reported melting point for Cn1ccc(=O)c(O)c1CC(O)c1cccnc1 (stereo not drawn) was 215 to 220 °C

* * *

Property Label: melting point

Sample answers from the record:
Molecule	melting point
CN(C)CCN1C(=O)c2cscc2N(C)c2ncccc21	129 to 130 °C
COC(=O)C=Cc1cncc2ccccc12	79 to 80 °C
O=C1N(CCO)c2ccccc2C(c2ccccc2)N1C1CCN(Cc2cccc(CO)c2)CC1 (stereo not given)	185 to 187 °C
COCC1=Nc2ccccc2C(=O)C1	184 to 185 °C
CN(C)c1ccc(Cn2nnc(-c3ccc(OC(=O)C(C)(C)C)c(N(C)C)c3)n2)cc1	73 to 74 °C

Value of measured melting point for the entry Cc1cccc(-c2n[nH]cc2-c2ccc(F)c(-c3cn(CCN(C)C)cn3)c2)n1 : 130 to 131 °C

O=C(NCc1ccc(Cl)cc1)c1cn(CCc2ccccc2)c2oc(CCl)cc2c1=O has a reported melting point of 150 to 153 °C

GET /value?item= Cn1cc2c(=O)[nH]c(=O)[nH]c2n1 &field=melting point returns 200 °C

Data point: CCCCn1c(=O)c2c(N3CCN(C)CC3)cc(Cl)cc2n(Cc2ccccc2)c1=O ; melting point = 121 to 123 °C

Kindly note the recorded melting point for CN(C)CCCOc1ccc(C[C@H](NC(=O)[C@@H]2CCCN2S(=O)(=O)c2cccs2)C(=O)O)cc1 , which is > 200 °C

* * *

Recorded measurements of melting point, one per entry

Solved cases (2 shown):
Molecule	melting point
OCCCSc1nc2ccc(Cc3ccccc3)cc2[nH]1	103 to 105 °C
NC(=O)N1CCN(c2ccc(O)c(O)c2)C1=O	> 250 °C

Then this molecule:
Per the records, this molecule ( CCCc1cc(CCC)n2nc(C)c(C#N)c2n1 ) has melting point equal to 73 to 74 °C

* * *

Property Label: melting point

Compound	Readout Value
CC(=O)Oc1ccc(-c2c(CBr)c3ccc(OC(C)=O)cc3oc2=O)c(OC(C)=O)c1	171 to 172 °C
Cc1ccsc1C=C1CCc2cc(OCCc3c[nH]cn3)ccc2C1=O	191 to 193 °C
NS(=O)(=O)NCC=Cc1ccccc1	118 °C
CCOCCN(SC(Cl)(Cl)Cl)C(=N)C(Cl)(Cl)Cl	65 to 66 °C

Recorded melting point (compound Cc1cccc(COc2cccc(OCc3cnc4ccccc4n3)c2)c1C(=O)O ): 57 to 60 °C

For this compound ( CC(C)N(CC1CCCCN1CCNC(=O)N1c2ccccc2C(=O)Nc2cccnc21)C(C)C (stereo unspecified) ), measured melting point is 181 to 182 °C

The recorded melting point for entry NC(=O)NCc1ccc(CNC(=O)[C@@H](CCCNC(N)=N[N+](=O)[O-])NC(=O)Cc2ccc(O)cc2)cc1 equals 168 to 170 °C

Form field melting point, entry COC(=O)COc1ccc2cc(CNC(=O)c3cnn(-c4ccc(Cl)cc4)c3C(F)(F)F)ccc2c1Br : 206 to 207 °C

Sample Cc1cc(S(=O)(=O)Nc2onc(C)c2Br)c(C)s1 ; melting point observed: 77 to 80 °C
